- Test system: wheat germ agglutinin (Triticum aestivum), Alexa647-labelled
- TEST METHOD NOTES: wheat germ agglutinin binders on compound microarrays, profiling panel, artefact control for SMM control-protein annotation, biochemical, small-molecule microarray, 635/667 nm fluorescence (AID 1140);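 further: score merges 667 nm feature emission with signal to noise over triplicate slides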
- EXPERIMENTAL CONTEXT: WGA-A647 binding, 635 nm fluorescence, higher = more signal
REPORTED ENDPOINT: composite z-score
API note: the answer field is a bare number with no unit suffix.

Input COc1cc(C(O)C2C=CC3C(=O)NC(=O)C3N2Nc2ccccn2)cc(OC)c1OC (stereo not drawn) . Output composite z-score: 0.0705

# composite z-score of "C=CCOC(=O)[C@H]1[C@@H]2C(=O)O[C@@H](c3ccccc3)[C@@H](c3ccccc3)N2[C@@H](c2ccc(OCCOC(=O)[C@H]3C[C@H]4C(=O)N[C@@H](CCCCNC(C)=O)C(=O)N4[C@H]3c3ccc(O)cc3)cc2)[C@]12C(=O)Nc1ccc(I)cc12" = 0.105

Sure, the documented composite z-score for COc1cc(NN2C(C(O)c3ccco3)C=CC3C(=O)N(c4ccccc4)C(=O)C32)cc(OC)c1OC (stereo not drawn) is 0.0464
